Tested on: KHYG-1 (IL-2 2.5 ng/mL);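 also: normalised to DMSO-only wells as negative and benzethonium chloride as positive control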
Test: percent inhibition of viability; higher = more inhibition
Conditions: 72 h; 1 nM
observable: percent inhibition of viability (%)

COc1c(C)cnc(Cn2cnc3c(Cl)nc(N)nc32)c1C [BIIB021] (max concentration tested 10000 nM) ... -2.8
CS(=O)(=O)c1ccc(C(=O)Nc2ccc(Cl)c(-c3ccccn3)c2)c(Cl)c1 [Vismodegib] (max concentration tested 10000 nM) ... -7.27
O=C(/C=C/c1cccc(S(=O)(=O)Nc2ccccc2)c1)NO [Belinostat] (max concentration tested 10000 nM) ... -0.75
COc1cc2c(Oc3ccc4[nH]c(C)cc4c3F)ncnc2cc1OCCCN1CCCC1 [Cediranib] (max concentration tested 1000 nM) ... 1.2
